Reported IC50 by item:
- testTarget: Human topoisomerase IIα (Homo sapiens (Human), UniProt P11388)
- Sequence (P11388 whole entry): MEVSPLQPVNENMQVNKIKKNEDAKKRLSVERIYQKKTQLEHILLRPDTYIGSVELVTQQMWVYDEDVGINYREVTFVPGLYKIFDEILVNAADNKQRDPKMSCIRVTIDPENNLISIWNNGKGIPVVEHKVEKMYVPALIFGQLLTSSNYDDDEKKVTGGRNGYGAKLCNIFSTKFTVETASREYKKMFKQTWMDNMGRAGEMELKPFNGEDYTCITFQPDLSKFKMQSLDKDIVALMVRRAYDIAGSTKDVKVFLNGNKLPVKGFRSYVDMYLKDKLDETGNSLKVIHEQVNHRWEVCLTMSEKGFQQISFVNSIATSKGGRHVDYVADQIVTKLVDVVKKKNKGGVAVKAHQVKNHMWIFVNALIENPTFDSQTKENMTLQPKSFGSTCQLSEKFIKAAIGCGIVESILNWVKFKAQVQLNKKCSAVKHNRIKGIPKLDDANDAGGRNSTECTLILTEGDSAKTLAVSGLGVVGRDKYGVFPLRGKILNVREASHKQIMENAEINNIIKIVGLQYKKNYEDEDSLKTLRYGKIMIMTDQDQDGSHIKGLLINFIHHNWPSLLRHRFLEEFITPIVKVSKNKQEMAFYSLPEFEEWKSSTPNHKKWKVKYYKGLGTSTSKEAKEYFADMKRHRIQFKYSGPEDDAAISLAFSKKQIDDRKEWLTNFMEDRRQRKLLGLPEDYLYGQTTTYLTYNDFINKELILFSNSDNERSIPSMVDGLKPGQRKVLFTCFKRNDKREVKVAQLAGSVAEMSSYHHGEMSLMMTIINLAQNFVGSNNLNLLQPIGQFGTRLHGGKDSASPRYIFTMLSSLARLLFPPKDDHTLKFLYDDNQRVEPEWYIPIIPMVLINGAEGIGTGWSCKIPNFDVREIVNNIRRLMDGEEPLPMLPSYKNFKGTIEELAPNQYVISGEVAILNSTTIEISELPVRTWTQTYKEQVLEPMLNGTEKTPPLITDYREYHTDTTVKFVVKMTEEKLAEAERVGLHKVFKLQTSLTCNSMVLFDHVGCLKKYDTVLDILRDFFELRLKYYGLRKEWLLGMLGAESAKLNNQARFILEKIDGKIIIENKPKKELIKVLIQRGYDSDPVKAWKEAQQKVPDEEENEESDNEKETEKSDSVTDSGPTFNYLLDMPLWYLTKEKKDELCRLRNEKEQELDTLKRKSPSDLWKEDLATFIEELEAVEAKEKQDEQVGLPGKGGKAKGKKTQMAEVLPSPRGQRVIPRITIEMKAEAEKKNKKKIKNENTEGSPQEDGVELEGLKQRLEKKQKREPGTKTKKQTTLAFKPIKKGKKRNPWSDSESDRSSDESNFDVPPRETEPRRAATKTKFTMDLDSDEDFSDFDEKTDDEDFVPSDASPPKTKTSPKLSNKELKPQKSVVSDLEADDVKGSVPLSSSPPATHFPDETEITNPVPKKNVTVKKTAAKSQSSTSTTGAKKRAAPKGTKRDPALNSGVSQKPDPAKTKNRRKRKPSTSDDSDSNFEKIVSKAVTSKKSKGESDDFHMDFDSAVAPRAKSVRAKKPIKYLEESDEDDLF
The figure you give is taken to be in µM; do not add the unit.

In [3]: df
Out[3]:
                                   compound  measurementunit  measuredresult
0  Nc1ccc2c(c1)Oc1c(N3CCOCC3)c(F)cc3c(=O)c(C(=O)O)cn-2c13 [Compound 11d]               µM            15.6

Lookup: Fill in the recorded IC50 for this compound, with Human topoisomerase IIα (Homo sapiens (Human), UniProt P11388) as test system: "O=C(O)c1cn2c3c(c(F)c(F)cc3c1=O)Oc1cc([N+](=O)[O-])c(Cl)cc1-2"
Found: 125
